assay: The drug is tested on Z-009 corresponding to pig gut metagenome with ENA study accession number: PRJEB37062 and ENA sample accession number: ERS12561809 for biotransformation under anaerobic condition. The drug concentrations were measured over 9 timepoints collected between 0 and 24 hours of incubation by liquid-chromatography-coupled mass spectrometry (LC–MS); details: 2 µM; also: call rule not given here
ASSAY_METRIC: Bacterial Biotransformation

Answered examples (5):
Task: Requested field: Bacterial Biotransformation. Item: CCOC(=O)[C@H](CCc1ccccc1)N[C@@H](C)C(=O)N1CCC[C@H]1C(=O)O.O=C(O)/C=C\C(=O)O [ENALAPRIL MALEATE]
Output: Compound metabolized

Task: Then this compound: Clc1cccc(Cl)c1N=C1NCCN1 [CLONIDINE]
Output: Compound metabolized

Task: Then this compound: CC(C)(C)NCC(O)COc1cccc2c1CC(O)C(O)C2 (centres undefined) [NADOLOL]
Output: Compound metabolized

Task: Then this compound: CCN(CC)CCOC(=O)C1(C2CCCCC2)CCCCC1 [DICYCLOMINE]
Output: Compound metabolized

Task: Then this compound: CC1=C(CC(=O)O)c2cc(F)ccc2/C1=C\c1ccc([S+](C)[O-])cc1 (centres undefined)
Output: Compound NOT metabolized

Next:
Task: Requested field: Bacterial Biotransformation. Item: CC(C)NCC(O)COc1ccc(CC(N)=O)cc1 (centres undefined) [ATENOLOL]
Output: Compound NOT metabolized

Task: Then this compound: CN(CCOc1ccc(CC2SC(=O)NC2=O)cc1)c1ccccn1.O=C(O)/C=C\C(=O)O (centres undefined) [ROSIGLITAZONE MALEATE]
Output: Compound NOT metabolized

Task: Then this compound: COc1cc(NC(C)CCCN)c2ncccc2c1.O=P(O)(O)O.O=P(O)(O)O (centres undefined) [PRIMAQUINE PHOSPHATE]
Output: Compound NOT metabolized

Task: Then this compound: O=C1CC2(CCCC2)CC(=O)N1CCCCN1CCN(c2ncccn2)CC1 [BUSPIRONE]
Output: Compound NOT metabolized

---

experiment: The drug is tested on Z-002 corresponding to rabbit gut metagenome with ENA study accession number: PRJEB37062 and ENA sample accession number: ERS12561802 for biotransformation under anaerobic condition. The drug concentrations were measured over 9 timepoints collected between 0 and 24 hours of incubation by liquid-chromatography-coupled mass spectrometry (LC–MS); settings: 2 µM
ASSAY_METRIC: Bacterial Biotransformation

Answered examples (5):
Task: Requested field: Bacterial Biotransformation. Item: O=P1(N(CCCl)CCCl)NCCCO1 (centres undefined) [CYCLOPHOSPHAMIDE ANHYDROUS]
Output: Compound NOT metabolized

Task: Then this compound: CC(CCc1ccccc1)NCC(O)c1ccc(O)c(C(N)=O)c1 (centres undefined) [LABETALOL]
Output: Compound NOT metabolized

Task: Then this compound: N=C(N)NC(=O)Cc1c(Cl)cccc1Cl [GUANFACINE]
Output: Compound NOT metabolized

Task: Then this compound: CCN(CC)CCNC(=O)c1ccc(NC(C)=O)cc1 [ACECAINIDE]
Output: Compound metabolized

Task: Then this compound: CCN(CC)CCOC(=O)C1(C2CCCCC2)CCCCC1 [DICYCLOMINE]
Output: Compound metabolized

Next:
Task: Requested field: Bacterial Biotransformation. Item: O=C1N=C([O-])NC1(c1ccccc1)c1ccccc1.[Na+] [PHENYTOIN SODIUM]
Output: Compound NOT metabolized

Task: Then this compound: OC(c1cc(C(F)(F)F)nc2c(C(F)(F)F)cccc12)C1CCCCN1 (centres undefined) [MEFLOQUINE]
Output: Compound metabolized

Task: Then this compound: CC(=O)O[C@]1(C(C)=O)CC[C@H]2[C@@H]3C=C(C)C4=CC(=O)CC[C@]4(C)[C@H]3CC[C@@]21C [MEGESTROL ACETATE]
Output: Compound metabolized

Task: Then this compound: c1ccc2[nH]c(-c3cscn3)nc2c1 [THIABENDAZOLE]
Output: Compound NOT metabolized

---

conditions: human gut metagenome, 24 h, 2 µM
ASSAY_METRIC: Bacterial Biotransformation

Task: Requested field: Bacterial Biotransformation. Item: COC(=O)C(c1ccccc1)C1CCCCN1 (stereo not given) [METHYLPHENIDATE]
Output: Compound NOT metabolized

Task: Then this molecule: CN(C)C(=O)Oc1cccc([N+](C)(C)C)c1.[Br-] [NEOSTIGMINE BROMIDE]
Output: Compound NOT metabolized

Task: Then this molecule: COC(=O)[C@H](c1ccccc1Cl)N1CCc2sccc2C1.O=S(=O)(O)O [CLOPIDOGREL BISULFATE]
Output: Compound metabolized

Task: Then this molecule: CC(C)(C)NC(=O)[C@H]1CC[C@H]2[C@@H]3CC[C@H]4NC(=O)C=C[C@]4(C)[C@H]3CC[C@]12C [FINASTERIDE]
Output: Compound metabolized

// next entry
Task: Requested field: Bacterial Biotransformation. Item: CCCN(CCC)CCc1cccc2c1CC(=O)N2
Output: Compound NOT metabolized

---

conditions: human gut metagenome, 24 h, 2 µM
ASSAY_METRIC: Bacterial Biotransformation

Answered examples (4):
Task: Requested field: Bacterial Biotransformation. Item: C[C@]12C=CC(=O)C=C1CC[C@@H]1[C@@H]2C(=O)C[C@@]2(C)[C@H]1CC[C@]2(O)C(=O)CO [PREDNISONE]
Output: Compound metabolized

Task: Then this compound: C=C[C@H]1CN2CC[C@H]1C[C@H]2[C@H](O)c1ccnc2ccc(OC)cc12.C=C[C@H]1CN2CC[C@H]1C[C@H]2[C@H](O)c1ccnc2ccc(OC)cc12.O.O.O=S(=O)(O)O [QUININE SULFATE]
Output: Compound NOT metabolized

Task: Then this compound: CC(=O)OCC(=O)[C@@]1(OC(C)=O)[C@@H](C)C[C@H]2[C@@H]3C[C@H](F)C4=CC(=O)C=C[C@]4(C)[C@@]3(F)[C@@H](O)C[C@@]21C [DIFLORASONE DIACETATE]
Output: Compound metabolized

Task: Then this compound: CN1CCN2c3ccccc3Cc3ccccc3C2C1 (configuration not stated) [MIANSERIN]
Output: Compound NOT metabolized

Next:
Task: Requested field: Bacterial Biotransformation. Item: COc1cc(NC(C)CCCN)c2ncccc2c1.O=P(O)(O)O.O=P(O)(O)O (configuration not stated) [PRIMAQUINE PHOSPHATE]
Output: Compound NOT metabolized

Task: Then this compound: CC#C[C@]1(O)CC[C@H]2[C@@H]3CCC4=CC(=O)CCC4=C3[C@@H](c3ccc(N(C)C)cc3)C[C@@]21C [MIFEPRISTONE]
Output: Compound metabolized

Task: Then this compound: CN1CCC[C@@H]1CCO[C@](C)(c1ccccc1)c1ccc(Cl)cc1.O=C(O)/C=C/C(=O)O [CLEMASTINE FUMARATE]
Output: Compound NOT metabolized

---

experiment: The drug is tested on Z-010 corresponding to metagenome with ENA study accession number: PRJEB37062 and ENA sample accession number: ERS12561810 for biotransformation under anaerobic condition. The drug concentrations were measured over 9 timepoints collected between 0 and 24 hours of incubation by liquid-chromatography-coupled mass spectrometry (LC–MS); settings: 2 µM
ASSAY_METRIC: Bacterial Biotransformation

Task: Requested field: Bacterial Biotransformation. Item: Clc1cccc(Cl)c1N=C1NCCN1
Output: Compound metabolized

Task: Then this compound: CCOc1ccccc1OCCN[C@H](C)Cc1ccc(OC)c(S(N)(=O)=O)c1.Cl [TAMSULOSIN HYDROCHLORIDE]
Output: Compound NOT metabolized

Task: Then this compound: OC(c1cc(C(F)(F)F)nc2c(C(F)(F)F)cccc12)C1CCCCN1 (centres undefined)
Output: Compound metabolized

Task: Then this compound: N#Cc1ccc2[nH]cc(CCCCN3CCN(c4ccc5oc(C(N)=O)cc5c4)CC3)c2c1
Output: Compound metabolized

Task: Then this compound: CCOC(=O)C1=C[C@]2(CC)CCCN3CCc4c(n1c1ccccc41)[C@@H]32
Output: Compound metabolized

Task: Then this compound: C[C@@H](c1ncncc1F)[C@](O)(Cn1cncn1)c1ccc(F)cc1F
Output: Compound metabolized

Task: Then this compound: CCOC(=O)[C@H](CCc1ccccc1)N[C@@H](C)C(=O)N1Cc2ccccc2C[C@H]1C(=O)O
Output: Compound NOT metabolized

Task: Then this compound: COc1ccc(CN2CCNCC2)c(OC)c1OC.Cl.Cl [TRIMETAZIDINE DIHYDROCHLORIDE]
Output: Compound NOT metabolized

// next entry
Task: Requested field: Bacterial Biotransformation. Item: CC(C)NCC(O)COc1ccc(CC(N)=O)cc1 (centres undefined)
Output: Compound NOT metabolized

---

conditions: human gut metagenome, 24 h, 2 µM
ASSAY_METRIC: Bacterial Biotransformation

Answered examples (5):
Task: Requested field: Bacterial Biotransformation. Item: CCOc1ccccc1OCCN[C@H](C)Cc1ccc(OC)c(S(N)(=O)=O)c1.Cl [TAMSULOSIN HYDROCHLORIDE]
Output: Compound NOT metabolized

Task: Then this compound: CC(C)c1c(CN(C)C(C)Cc2ccccc2)n(C)n(-c2ccccc2)c1=O (configuration not stated)
Output: Compound metabolized

Task: Then this compound: CN(CCOc1ccc(CC2SC(=O)NC2=O)cc1)c1ccccn1.O=C(O)/C=C\C(=O)O (configuration not stated) [ROSIGLITAZONE MALEATE]
Output: Compound metabolized

Task: Then this compound: O=P1(N(CCCl)CCCl)NCCCO1 (configuration not stated) [CYCLOPHOSPHAMIDE ANHYDROUS]
Output: Compound NOT metabolized

Task: Then this compound: Cc1cc(C)cc(OCC2CNC(=O)O2)c1 (configuration not stated)
Output: Compound metabolized

Next:
Task: Requested field: Bacterial Biotransformation. Item: CC(C)C[C@H]1C(=O)N2CCC[C@H]2[C@]2(O)O[C@](NC(=O)[C@@H]3C=C4c5cccc6[nH]c(Br)c(c56)C[C@H]4N(C)C3)(C(C)C)C(=O)N12.CS(=O)(=O)O [BROMOCRIPTINE MESYLATE]
Output: Compound metabolized

Task: Then this compound: CN1CCC(OC(c2ccccc2)c2ccccc2)CC1
Output: Compound NOT metabolized

Task: Then this compound: CN1CCC(=C2c3ccccc3CC(=O)c3sccc32)CC1.O=C(O)/C=C/C(=O)O [KETOTIFEN FUMARATE]
Output: Compound NOT metabolized

Task: Then this compound: CCc1oc2ccccc2c1C(=O)c1cc(Br)c(O)c(Br)c1
Output: Compound NOT metabolized

Task: Then this compound: CC(=O)Nc1ccc(OC(C)=O)cc1 [DIACETAMATE]
Output: Compound metabolized

Task: Then this compound: Br.COc1ccc2c(c1)[C@]13CCCC[C@@H]1[C@H](C2)N(C)CC3.O [DEXTROMETHORPHAN HYDROBROMIDE]
Output: Compound NOT metabolized

Task: Then this compound: COc1ccc(CN2CCNCC2)c(OC)c1OC.Cl.Cl [TRIMETAZIDINE DIHYDROCHLORIDE]
Output: Compound NOT metabolized

Task: Then this compound: CCOC(=O)[C@H](CCc1ccccc1)N[C@@H](C)C(=O)N1CCC[C@H]1C(=O)O.O=C(O)/C=C\C(=O)O [ENALAPRIL MALEATE]
Output: Compound NOT metabolized

Task: Then this compound: CCN(CC)C(=O)C1(c2ccccc2)CC1CN (configuration not stated)
Output: Compound NOT metabolized

Task: Then this compound: CCc1cccc2c3c([nH]c12)C(CC)(CC(=O)O)OCC3 (configuration not stated)
Output: Compound metabolized

Task: Then this compound: CN[C@H]1CC[C@@H](c2ccc(Cl)c(Cl)c2)c2ccccc21
Output: Compound NOT metabolized

Task: Then this compound: CCN(CC)CCNC(=O)c1cc(S(C)(=O)=O)ccc1OC [TIAPRIDE]
Output: Compound NOT metabolized
